Reported values of Maximum inhibition rate for individual entries
- studySystem: Human ST2-fc (human) (UniProt Q01638)
- methodNotes: competition ELISA, coated ST2-fc, competitor IL33-his
The reply should contain only the number, in %.

binder: 5886-156-H1L0 (antibody, human IgG4 S228P, kappa, V domains shown, Humanized antibody expressed in CHO-K1, purified by protein A) VH: QVQLQESGPGLVKPSQTLSLTCTVSGYSITSDYAWNWIRQPPGKGLEWIGYIDYSGSTTYNPSLKSRVTISRDTSKNQFSLKLSSVTAADTAVYYCASTVIDSMDYWGQGTLVTVSS VL: DIVLTQSPASLAVSPGQRATITCRASKSVSTSGHSYMHWYQQKPGQPPKLLIYLASNLESGVPARFSGSGSGTDFTLTINPVEANDTANYYCQHSREFPFTFGQGTKVEIKR
measuredProperty: Maximum inhibition rate
measurementUnit: %
reading: 89.2

Asked: Maximum inhibition rate for 5888-153-H0L2 (antibody, human IgG4 S228P, kappa, V domains shown) VH: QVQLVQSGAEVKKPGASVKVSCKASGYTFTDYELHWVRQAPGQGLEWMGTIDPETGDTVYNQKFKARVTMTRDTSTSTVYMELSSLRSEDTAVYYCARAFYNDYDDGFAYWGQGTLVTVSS VL: EIVMTQSPATLSLSPGERATLSCSVSSSVSYMHWYQQKPGQAPRRLIYDTSKLASGIPARFSGSGSGTDYTLTISSLEPEDAAVYYCQQWNTSPLTFGGGTKVEIKR ?
Given back: 93.5
